# target.under.test: BCL-XL (Homo sapiens, UniProt Q07817)
# Construct: endogenous in cells; host or cells: MOLT-4
# Sequence (Q07817 whole entry): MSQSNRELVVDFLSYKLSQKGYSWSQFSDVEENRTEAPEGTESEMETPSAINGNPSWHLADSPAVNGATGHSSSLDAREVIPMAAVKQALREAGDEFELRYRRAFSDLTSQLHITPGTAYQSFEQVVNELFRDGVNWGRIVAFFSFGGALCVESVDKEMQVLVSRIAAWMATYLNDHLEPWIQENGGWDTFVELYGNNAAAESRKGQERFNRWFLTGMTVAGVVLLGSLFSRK
# measurement.notes: Bcl-xL ELISA degradation in MOLT-4 cells, 6 h
# Assay type: cell-based
readout.type: Dmax

[[record]]
molecule = "Cc1cc(N(C)c2ccc(-c3cnn(CC45CC6CC(CC(C6)C4)C5)c3C)c(C(=O)NS(=O)(=O)CCCCCC(=O)N[C@H](C(=O)N3C[C@H](O)C[C@H]3C(=O)N[C@H](C)c3ccc4c(c3)c(C)nn4C)C(C)(C)C)n2)nnc1Nc1nc2ccccc2s1 (single isomer, unassigned)"
readout_type = "Dmax"
result = "> 75%"

[[record]]
molecule = "C#Cc1ccc(CNC(=O)[C@@H]2C[C@@H](O)CN2C(=O)[C@@H](c2cc(N3CCN(c4ccc(S(=O)(=O)NC(=O)c5nc(N6CCc7cccc(C(=O)Nc8nc9ccccc9s8)c7C6)ccc5-c5cnn(CC6CCCCC6)c5C)cc4)CC3)no2)C(C)C)c(OC)c1"
readout_type = "Dmax"
result = "50 to 75%"


Query string: Give BCL-XL (Homo sapiens, UniProt Q07817) Dmax for Cc1ncsc1-c1ccc([C@H](C)NC(=O)[C@@H]2C[C@@H](OC(=O)CCP(=O)(O)O)CN2C(=O)[C@@H](NC(=O)C2CCN(c3ccc(S(=O)(=O)NC(=O)c4nc(N5CCc6cccc(C(=O)Nc7nc8ccccc8s7)c6C5)ccc4-c4cnn(CC5CCCCC5)c4C)cc3)CC2)C(C)(C)C)cc1
Result string: > 75%
